# PROTOCOL: Pharmacokinetic assessment: plasma concentrations by liquid chromatography tandem mass spectrometry after ticagrelor loading dose
# Assay type: in vivo, human (patients with myocardial infarction)
# PROTOCOL CONDITIONS: both sexes, human, plasma, po, 180 mg, NSTEMI patients (n = 24); oral 180 mg ticagrelor LD; plasma; median [interquartile range]; read-out: AUC(0–6)
MEASUREMENT KIND: AUC(0-t) (ng·h/mL)
Numbers only here, please. The scale is ng·h/mL.

For the compound "CCCSc1nc(N[C@@H]2C[C@H]2c2ccc(F)c(F)c2)c2nnn([C@@H]3C[C@H](OCCO)[C@@H](O)[C@H]3O)c2n1" , what AUC(0-t) is on record? 3990

Origin of measurements: paper PMC5638327
